Assay: yeast display, Sf9 membrane polyspecificity reagent, FACS + sequencing; frameworks hold sequencing errors
MEASURED_PROPERTY: polyreactivity (PSR sort gate)

# SEQUENCE_CHAIN, OBSERVED_RESULT
measured = [
    ("QVQLVESGGGLVQAGGSLRLSCASSGTFRLYAMGWYRQAPGKEREFVAAITSGGRTYADSVKGRFTISRDNAKNTVYLQMNSLKPEDTAVYYCAADAGRILFSGYDYWGQGTQVTVSS", "low polyreactivity"),
    ("QVQLVESGGGLVQAGGSLRLSCAASGLTFSVYAMGWYRQAPGKERELVASISSGGTSTYYADSVKGRFTISRDNAKNTVYLQMNSLKPEDTAVYYCAAYSYYTGDQYSYDYWGQGTQVTVSS", "low polyreactivity"),
    ("QVHLVESGGGLVQAGGSLRLSCAASGFTLFGYAMGWYRQAPGKERELVAAISKDGGSTYYADSVKGRFTISRDNAKNTVYLQMNSLKPEDTAVYYCAARVKRPQTGYDRRYGYWGQGTQVTVSS", "high polyreactivity"),
    ("QVQLVESGGGLVQAGGSLRLSCAASGFTFRGNAMGWYRQAPGKERELVAAITSSDDSTYYADSVKGRFTISRDNAKNTVYLQMNSLKPEDTAVYYCAAVANGYWTYEYWGQGTQVTVSS", "low polyreactivity"),
    ("QVQLVESGGGLVQAGGSLRLSCAASGSTFPYYAMGWYRQAPGKERELVAAISGSGGTTYYADSVKGRFTISRDNAKNTVYLQMNILKPEDTAVYYCAAEASHYYYNAYPSYGGSDYWGQGTQVTVSS", "low polyreactivity"),
    ("QVQLVESVGGLVQAGGSLRLSCAASGSIFAIYVMGSYRQAPGKERELVAAISYRSGSTYYADSVKGRFTISRDNAKNTVYLQMNSLKPEDTAVYYCAATSRYYTFGYWGQGTQVTVSS", "low polyreactivity"),
    ("QVQLVESGGGLVQAGGSLRLSCAASGRIFRAYAMGWYRQAPGKERELVADIRGGGSTNYADSVKGRFTISRDNAKNTVYLQMNSLKPEDTAVYYCNAAAYRGMRQGPRYYYWGQGTQVTVSS", "high polyreactivity"),
    ("QVQLVESGGGLVQAGGSLRLRCGASGFIFDQYAMGWYRQAPGKERELVAAITYSGGGTYYADSVKGRFTISRDNAKNTVYLQMNSLKPEDTAVYYCADLFGYSLYDAQYDYWGQGTQVTVSS", "low polyreactivity"),
    ("QVQLVESGGGLVQAGGSLRLSCAASGRIFSEYAMGWYRQAPGKERELVASISTSGGSTYYADSVKGRFTISRDNAKNTVYLQMNSLKPEDTAVYYCNVAYSRYPSYTYGYDHWGQGTQVTVSS", "high polyreactivity"),
    ("QVQLVESGGGLVQAGGSLRLSCAASGSISYYNAMGWYRQAPGKERELVATITDSGGSTYYADSVKGRFTISRDNAKNTVYLQMNSLKPEDTAVYYCAVDYTEWYSIYDYWGQGTEVTVSS", "low polyreactivity"),
    ("QVQLVESGGGLVQAGGSLRLSCAASGRIFKSYVMGWYRQAPGKERELVAAISKRGGRTYYADSVKGRFTISRDNAKNTVYLQMNSLKPEDTAVYYCNATYPVGDFDYWGQGTQVTVSS", "high polyreactivity"),
]
